So I've got a bunch of compounds here, and I need their IC50 values.
tested on: Hs 683; assay: Cytotoxicity against human Hs683 cancer cell line; assay type: functional, cell-based

- smilesStr: "COc1ccc(OC)c([C@@H]2C[C@H]3[C@@H]4CC=C5C[C@@H](O)CC[C@]5(C)[C@H]4CC[C@]3(C)[C@H]2C(C)=O)c1"
  result: "> 10 µM"
- smilesStr: "COc1ccc(OC)c([C@@H]2C[C@H]3[C@@H]4CC=C5C[C@@H](O[C@@H]6O[C@H](CO)[C@@H](O)[C@H](O)[C@@H]6O)CC[C@]5(C)[C@H]4CC[C@]3(C)[C@H]2C(C)=O)c1"
  result: "> 10 µM"
- smilesStr: "COc1ccc(OC)c([C@@H]2C[C@H]3[C@@H]4CC=C5C[C@@H](O[C@@H]6O[C@H](CO)[C@H](O)[C@H](O)[C@H]6O)CC[C@]5(C)[C@H]4CC[C@]3(C)[C@H]2C(C)=O)c1"
  result: "> 10 µM"

For each entry beneath this line, provide reported IC50.
1. COc1ccc(OC)c([C@@H]2C[C@H]3[C@@H]4CC=C5C[C@@H](O[C@@H]6O[C@H](CO)[C@@H](O)[C@H](O)[C@H]6NC(C)=O)CC[C@]5(C)[C@H]4CC[C@]3(C)[C@H]2C(C)=O)c1
2. COc1ccc(OC)c([C@@H]2C[C@H]3[C@@H]4CC=C5C[C@@H](O[C@@H]6O[C@H](CO[C@H]7O[C@H](CO)[C@@H](O)[C@H](O)[C@H]7O)[C@@H](O)[C@H](O)[C@H]6O)CC[C@]5(C)[C@H]4CC[C@]3(C)[C@H]2[C@H](C)O[C@@H]2O[C@H](CO[C@H]3O[C@H](CO)[C@@H](O)[C@H](O)[C@H]3O)[C@@H](O)[C@H](O)[C@H]2O)c1
3. COc1ccc(OC)c([C@@H]2C[C@H]3[C@@H]4CC=C5C[C@@H](O[C@H]6O[C@H](CO)[C@@H](O[C@H]7O[C@H](CO)[C@@H](O)[C@H](O)[C@H]7O)[C@H](O)[C@H]6O)CC[C@]5(C)[C@H]4CC[C@]3(C)[C@H]2C(C)=O)c1
4. COc1ccc(OC)c([C@@H]2C[C@H]3[C@@H]4CC=C5C[C@@H](O[C@H]6O[C@H](CO)[C@@H](O[C@@H]7O[C@H](CO)[C@H](O)[C@H](O)[C@H]7O)[C@H](O)[C@H]6O)CC[C@]5(C)[C@H]4CC[C@]3(C)[C@H]2C(C)=O)c1

1: > 10 µM; 2: > 10 µM; 3: > 10 µM; 4: > 10 µM

Batch lookup, IC50 per entry.
1. COc1ccc(OC)c([C@@H]2C[C@H]3[C@@H]4CC=C5C[C@@H](O[C@@H]6O[C@H](CO)[C@@H](O[C@@H]7O[C@H](CO)[C@@H](O)[C@H](O)[C@H]7O)[C@H](O)[C@H]6O)CC[C@]5(C)[C@H]4CC[C@]3(C)[C@H]2[C@H](C)O[C@@H]2O[C@H](CO)[C@@H](O[C@@H]3O[C@H](CO)[C@@H](O)[C@H](O)[C@H]3O)[C@H](O)[C@H]2O)c1
2. COc1ccc(OC)c([C@@H]2C[C@H]3[C@@H]4CC=C5C[C@@H](O)CC[C@]5(C)[C@H]4CC[C@]3(C)[C@H]2[C@H](C)O)c1
3. COc1ccc(OC)c([C@@H]2C[C@H]3[C@@H]4CC=C5C[C@@H](O[C@H]6O[C@H](CO)[C@@H](O[C@@H]7O[C@H](CO)[C@H](O)[C@H](O)[C@H]7O)[C@H](O)[C@H]6O)CC[C@]5(C)[C@H]4CC[C@]3(C)[C@H]2[C@H](C)O[C@H]2O[C@H](CO)[C@@H](O[C@@H]3O[C@H](CO)[C@H](O)[C@H](O)[C@H]3O)[C@H](O)[C@H]2O)c1
4. COc1ccc(OC)c([C@@H]2C[C@H]3[C@@H]4CC=C5C[C@@H](O[C@@H]6O[C@H](CO)[C@@H](O[C@@H]7O[C@H](CO)[C@@H](O)[C@H](O)[C@H]7O)[C@H](O)[C@H]6O)CC[C@]5(C)[C@H]4CC[C@]3(C)[C@H]2C(C)=O)c1

> 10 µM
> 10 µM
> 10 µM
> 10 µM
